Experiment: Induction of apoptosis in human EPC cells derived from healthy volunteers assessed as activation of caspase-3/7 level incubated for 16 hrs
Assay type: toxicity, cell-based
Conditions: EPC cells derived from healthy volunteers

[
  {
    "STRUCTURE STRING": "C1=C/COCc2cc(ccc2OCCN2CCCC2)Nc2nccc(n2)-c2cccc(c2)COC/1",
    "UNIT": "µM",
    "EC50 at 16 h": 0.224
  }
]

* * *

Test system: Karpas-1106P
Assay: Induction of apoptosis in human KARPAS-1106P cells assessed as activation of caspase-3/7 incubated for 16 hrs
Format: functional, cell-based
pEC50: −log10 of the molar value.
ENDPOINT NAME: pEC50

[
  {
    "STRUCTURE STRING": "C1=N/C2=N/c3ccc(OCCN4CCCC4)c(c3)COC/C=C/COCc3cccc(c3)C(=C1)N2",
    "ASSAYED TARGET": "Karpas-1106P",
    "RECORDED RESULT": 5.95
  }
]

* * *

Test system: SNU-387
Test: Antiproliferative activity against human SNU-387 cells assessed as inhibition of cell viability incubated for 48 hrs by CellTiterGlo assay
Format: functional, cell-based
Conditions: SNU-387, 48 h
ENDPOINT NAME: IC50 (µM)

[
  {
    "STRUCTURE STRING": "C1=N/C2=N/c3ccc(OCCN4CCCC4)c(c3)COC/C=C/COCc3cccc(c3)C(=C1)N2",
    "RECORDED RESULT": 2.03
  }
]

* * *

System: MOLM-13
Test: Antiproliferative activity against human MOLM-13 cells harboring FLT3-ITD mutant assessed as inhibition of cell viability incubated for 48 hrs by CellTiterGlo assay
Type: functional, cell-based
Details: MOLM-13, 48 h

[
  {
    "STRUCTURE STRING": "C1=N/C2=N/c3ccc(OCCN4CCCC4)c(c3)COC/C=C/COCc3cccc(c3)C(=C1)N2",
    "IC50": "67 nM"
  }
]

* * *

System: Karpas-1106P
Experiment: Antiproliferative activity against human KARPAS-1106P cells harboring JAK2 assessed as inhibition of cell viability incubated for 48 hrs by CellTiterGlo assay
Format: functional, cell-based

[
  {
    "STRUCTURE STRING": "C1=N/C2=N/c3ccc(OCCN4CCCC4)c(c3)COC/C=C/COCc3cccc(c3)C(=C1)N2",
    "UNIT": "nM",
    "IC50": 348
  }
]

* * *

Test system: MOLT-4
Assay: Antiproliferative activity against human MOLT-4 cells assessed as inhibition of cell viability incubated for 48 hrs by CellTiterGlo assay
Type: functional, cell-based
Conditions: MOLT-4, 48 h
pIC50: −log10 of the molar value.
ENDPOINT NAME: pIC50

[
  {
    "STRUCTURE STRING": "C1=N/C2=N/c3ccc(OCCN4CCCC4)c(c3)COC/C=C/COCc3cccc(c3)C(=C1)N2",
    "RECORDED RESULT": 6.12
  }
]

* * *

Experiment: Cytotoxicity against human EPC cells derived from polycythemia vera patients assessed as inhibition of cell viability incubated for 48 hrs by CellTiterGlo assay
Format: toxicity, cell-based
pIC50: −log10 of the molar value.

[
  {
    "STRUCTURE STRING": "C1=N/C2=N/c3ccc(OCCN4CCCC4)c(c3)COC/C=C/COCc3cccc(c3)C(=C1)N2",
    "pIC50": 6.59
  }
]
